Data origin, for the record: PubChem BioAssay AID1851

Study target: Cytochrome P450 2C9 (Homo sapiens) (UniProt P11712)
Sequence (P11712 whole entry, looked up): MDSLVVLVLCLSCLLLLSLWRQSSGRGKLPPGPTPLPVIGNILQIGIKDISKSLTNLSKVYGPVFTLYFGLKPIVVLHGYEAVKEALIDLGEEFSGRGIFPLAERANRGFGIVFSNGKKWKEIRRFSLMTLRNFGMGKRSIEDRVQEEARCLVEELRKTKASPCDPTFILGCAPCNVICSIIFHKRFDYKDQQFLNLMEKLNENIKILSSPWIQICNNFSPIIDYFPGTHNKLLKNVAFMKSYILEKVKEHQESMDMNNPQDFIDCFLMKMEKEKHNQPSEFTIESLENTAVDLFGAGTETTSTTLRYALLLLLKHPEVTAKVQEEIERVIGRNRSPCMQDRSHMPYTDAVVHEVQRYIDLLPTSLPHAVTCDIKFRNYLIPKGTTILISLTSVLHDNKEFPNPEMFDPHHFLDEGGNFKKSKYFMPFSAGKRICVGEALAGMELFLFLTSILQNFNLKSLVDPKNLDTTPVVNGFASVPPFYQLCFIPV
Assay name: Cytochrome panel assay with activity outcomes
Measurement parameters: recombinant CYP, pro-luciferin dealkylation, luminescence, p450-cyp2c9; series mostly up to 57.1 µM
In all, about 16,000 compounds went through this assay and about 4,000 (25%) were called active. Another 26% or so got no clear call; they are omitted. Calls come from the whole dose curve; as a rule, active = well fitted curve in the direction sought with a large enough effect; inconclusive = small, poorly fitted or top-dose-only effect, or effect the other way; inactive = no such curve, though single readings can be large or run the other way. Not all results are given here.
Outcomes: T (active), F (inactive)

# Molecule, Study target, Group
measured = [
    ("CCOC(=O)C(=CNCC(=O)O)C(=O)OCC", "Cytochrome P450 2C9 (Homo sapiens) (UniProt P11712)", "F"),
    ("COCC(=O)Nc1c(I)c(C(=O)NC[C@@H](O)CO)c(I)c(C(=O)N(C)C[C@@H](O)CO)c1I", "Cytochrome P450 2C9 (Homo sapiens) (UniProt P11712)", "F"),
    ("CNC[C@H](O)[C@H](O)[C@H](O)[C@H](O)CO", "Cytochrome P450 2C9 (Homo sapiens) (UniProt P11712)", "F"),
    ("COc1ccc(CCn2c(C)cc(C(=O)CSc3nc(N)cc(=O)[nH]3)c2C)cc1", "Cytochrome P450 2C9 (Homo sapiens) (UniProt P11712)", "T"),
    ("CC(C)n1c(O)c(/C=C2\\C=Nc3ccccc32)sc1=Nc1ccccc1", "Cytochrome P450 2C9 (Homo sapiens) (UniProt P11712)", "T"),
    ("COc1cc(/C=C2/C(=N)N3OC(C)=CC3=NC2=O)ccc1OCCOc1ccc(C)cc1", "Cytochrome P450 2C9 (Homo sapiens) (UniProt P11712)", "F"),
    ("O=C(Nc1ccc([N+](=O)[O-])cc1Cl)c1cc(Cl)ccc1O", "Cytochrome P450 2C9 (Homo sapiens) (UniProt P11712)", "T"),
    ("CCOc1cc(/C=C2/C(=N)N3C=CSC3=NC2=O)ccc1OCCCOc1ccccc1C", "Cytochrome P450 2C9 (Homo sapiens) (UniProt P11712)", "T"),
    ("Cc1[nH]n2c(=O)c(C#N)c(-c3ccccc3)nc2c1-c1ccccc1", "Cytochrome P450 2C9 (Homo sapiens) (UniProt P11712)", "T"),
    ("Cc1ccc(NC(=O)N(Cc2ccco2)C(C)c2ccco2)cc1C (centres undefined)", "Cytochrome P450 2C9 (Homo sapiens) (UniProt P11712)", "T"),
    ("Cc1cc(N2CCN(C)CC2)nc2ccc(NC(=O)CCC(=O)NCc3ccco3)cc12", "Cytochrome P450 2C9 (Homo sapiens) (UniProt P11712)", "F"),
    ("COC(=O)c1nn(-c2ccc(OC)cc2)c(=O)cc1Oc1cccc(Cl)c1", "Cytochrome P450 2C9 (Homo sapiens) (UniProt P11712)", "F"),
    ("CCOC(=O)N/N=C/c1ccc(C)o1", "Cytochrome P450 2C9 (Homo sapiens) (UniProt P11712)", "F"),
    ("O=C1C(Cc2ccccc2)SC(=Nc2ccccc2)N1c1ccccc1 (centres undefined)", "Cytochrome P450 2C9 (Homo sapiens) (UniProt P11712)", "T"),
    ("Cc1nn(-c2ccccc2)c2c1C(c1ccc(O)c(O)c1)N1C(=N2)C(Nc2ccccc2)=Nc2ccccc21 (centres undefined)", "Cytochrome P450 2C9 (Homo sapiens) (UniProt P11712)", "T"),
    ("CC#C[C@]1(O)CC[C@H]2[C@@H]3CCC4=CC(=O)CCC4=C3[C@H](c3ccc(N(C)C)cc3)C[C@@]21C", "Cytochrome P450 2C9 (Homo sapiens) (UniProt P11712)", "F"),
    ("NC(=S)Nc1ccc(Oc2ccc(NC(N)=S)cc2)cc1", "Cytochrome P450 2C9 (Homo sapiens) (UniProt P11712)", "T"),
    ("COc1ccccc1OCCOc1ccc(/C=C2/C(=N)N3OC(C)=CC3=NC2=O)cc1OC", "Cytochrome P450 2C9 (Homo sapiens) (UniProt P11712)", "F"),
    ("O=C(Nc1cccc2nsnc12)c1ccc(-c2cccc(Cl)c2)o1", "Cytochrome P450 2C9 (Homo sapiens) (UniProt P11712)", "F"),
    ("CN1CCN(c2ncc3nc(-c4cccs4)c(=O)n(CCc4ccccc4)c3n2)CC1", "Cytochrome P450 2C9 (Homo sapiens) (UniProt P11712)", "F"),
    ("COC(=O)c1sccc1-c1ccc(C(=O)Nc2cccc(Cl)c2)o1", "Cytochrome P450 2C9 (Homo sapiens) (UniProt P11712)", "T"),
    ("CCOc1ncnc2c1oc1nc(CC(C)C)c3c(c12)CC(C)(C)OC3", "Cytochrome P450 2C9 (Homo sapiens) (UniProt P11712)", "T"),
    ("CCn1c2ccc(Cl)cc2c2nc3ccccc3nc21", "Cytochrome P450 2C9 (Homo sapiens) (UniProt P11712)", "T"),
    ("CSc1nc(O)c(Cc2ccccc2)c(=O)[nH]1", "Cytochrome P450 2C9 (Homo sapiens) (UniProt P11712)", "F"),
    ("COc1ccc2[nH]c(=O)c(NC(N)=S)nc2c1", "Cytochrome P450 2C9 (Homo sapiens) (UniProt P11712)", "F"),
    ("Cc1cc(C)c2c(N=NN(C)C)[nH]nc2n1", "Cytochrome P450 2C9 (Homo sapiens) (UniProt P11712)", "F"),
    ("Cc1cccc[n+]1CC(=O)Nc1ccc([N+](=O)[O-])cc1Cl", "Cytochrome P450 2C9 (Homo sapiens) (UniProt P11712)", "F"),
    ("CC#C[C@@]1(O)CC[C@H]2[C@@H]3CCC4=CC(=O)CCC4=C3[C@H](c3ccc(N(C)C)cc3)C[C@]21C", "Cytochrome P450 2C9 (Homo sapiens) (UniProt P11712)", "T"),
    ("N#Cc1c(-c2ccccc2)no[n+]1[O-]", "Cytochrome P450 2C9 (Homo sapiens) (UniProt P11712)", "F"),
]
